Tested on: Mus musculus
Assay: In vivo inhibitory activity against mescaline-induced head twitches of mice after pretreatment for 1 hour upon subcutaneous administration
Type: functional
Conditions: sc
Each entry below carries its reported ED50.
QUANTITY_MEASURED: ED50 (mg/kg)

>  <COMPOUND>
Fc1ccc(N2CCN(C3CC[Si](c4ccccc4)(c4ccccc4)C3)CC2)cc1 (centres undefined)

>  <RECORDED_VALUE>
10

$$$$
>  <COMPOUND>
c1ccc(N2CCN(C3CC[Si](c4ccccc4)(c4ccccc4)C3)CC2)cc1 (centres undefined)

>  <RECORDED_VALUE>
68

$$$$
>  <COMPOUND>
Fc1ccc([Si]2(c3ccc(F)cc3)CCC(N3CCN(c4ccccc4)CC3)C2)cc1 (racemic)

>  <RECORDED_VALUE>
1.38

$$$$
>  <COMPOUND>
Cc1nc2sccn2c(=O)c1CCN1CCC(=C(c2ccc(F)cc2)c2ccc(F)cc2)CC1

>  <RECORDED_VALUE>
0.29

$$$$

---

pIC50: −log10 of the molar value.
What follows is a collection of pIC50 values obtained with Histamine H1 receptor (Homo sapiens).
Sequence (P35367 whole entry): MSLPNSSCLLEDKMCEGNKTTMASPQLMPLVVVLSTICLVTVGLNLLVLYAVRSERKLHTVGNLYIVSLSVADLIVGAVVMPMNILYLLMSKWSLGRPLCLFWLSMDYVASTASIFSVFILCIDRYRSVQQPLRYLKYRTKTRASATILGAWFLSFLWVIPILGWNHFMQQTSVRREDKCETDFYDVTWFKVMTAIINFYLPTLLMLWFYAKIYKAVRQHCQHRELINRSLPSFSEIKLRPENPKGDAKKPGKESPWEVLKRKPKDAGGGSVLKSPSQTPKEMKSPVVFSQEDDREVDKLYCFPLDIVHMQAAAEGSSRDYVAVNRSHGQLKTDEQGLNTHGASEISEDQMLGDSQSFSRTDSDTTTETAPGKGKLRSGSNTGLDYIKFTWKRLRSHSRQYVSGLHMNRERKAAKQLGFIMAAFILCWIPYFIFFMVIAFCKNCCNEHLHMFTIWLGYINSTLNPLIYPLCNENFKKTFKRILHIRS

>  <COMPOUND>
Fc1ccc([Si]2(c3ccc(F)cc3)CCC(N3CCN(c4ccccc4)CC3)C2)cc1 (single isomer, unassigned; (+))

>  <pIC50>
< 6.00

$$$$
>  <COMPOUND>
Fc1ccc([Si]2(c3ccc(F)cc3)CCC(N3CCN(c4ccccc4)CC3)C2)cc1 (racemic)

>  <pIC50>
< 6.00

$$$$

---

Each entry below carries its reported IC50.
Target: 5-hydroxytryptamine receptor 2A (Rattus norvegicus)
Test: In vitro binding affinity towards serotonin 5-HT2A receptor in rat cortical membranes using [3H]ketanserin as radioligand
QUANTITY_MEASURED: IC50 (nM)

>  <COMPOUND>
c1ccc(N2CCN(C3CC[Si](c4ccccc4)(c4ccccc4)C3)CC2)cc1 (centres undefined)

>  <RESULT_UNITS>
nM

>  <RECORDED_VALUE>
1

$$$$
>  <COMPOUND>
c1ccc(C2CCN(C3CC[Si](c4ccccc4)(c4ccccc4)C3)CC2)cc1 (centres undefined)

>  <RESULT_UNITS>
nM

>  <RECORDED_VALUE>
53

$$$$
>  <COMPOUND>
c1ccc([Si]2(c3ccccc3)CCC(N3CCN(c4ccccn4)CC3)C2)cc1 (centres undefined)

>  <RESULT_UNITS>
nM

>  <RECORDED_VALUE>
29

$$$$
>  <COMPOUND>
Fc1ccc(N2CCN(C3CC[Si](c4ccccc4)(c4ccccc4)C3)CC2)cc1 (centres undefined)

>  <RESULT_UNITS>
nM

>  <RECORDED_VALUE>
0.9

$$$$
>  <COMPOUND>
Fc1ccccc1N1CCN(C2CC[Si](c3ccccc3)(c3ccccc3)C2)CC1 (centres undefined)

>  <RESULT_UNITS>
nM

>  <RECORDED_VALUE>
100

$$$$
>  <COMPOUND>
Clc1ccc(N2CCN(C3CC[Si](c4ccccc4)(c4ccccc4)C3)CC2)cc1 (centres undefined)

>  <RESULT_UNITS>
nM

>  <RECORDED_VALUE>
25

$$$$
>  <COMPOUND>
Fc1ccc([Si]2(c3ccccc3)CCC(N3CCN(c4ccccc4)CC3)C2)cc1 (stereo in doubt)

>  <RESULT_UNITS>
nM

>  <RECORDED_VALUE>
27

$$$$
>  <COMPOUND>
Fc1ccc([Si]2(c3ccccc3)CCC(N3CCN(c4ccccc4)CC3)C2)cc1 (single isomer, unassigned)

>  <RESULT_UNITS>
nM

>  <RECORDED_VALUE>
20

$$$$
>  <COMPOUND>
Fc1ccc(N2CCN(C3CC[Si](c4ccc(F)cc4)(c4ccc(F)cc4)C3)CC2)cc1 (centres undefined)

>  <RESULT_UNITS>
nM

>  <RECORDED_VALUE>
18

$$$$

---

Biological target: D(2) dopamine receptor (Homo sapiens, UniProt P14416)
Sequence (P14416 whole entry): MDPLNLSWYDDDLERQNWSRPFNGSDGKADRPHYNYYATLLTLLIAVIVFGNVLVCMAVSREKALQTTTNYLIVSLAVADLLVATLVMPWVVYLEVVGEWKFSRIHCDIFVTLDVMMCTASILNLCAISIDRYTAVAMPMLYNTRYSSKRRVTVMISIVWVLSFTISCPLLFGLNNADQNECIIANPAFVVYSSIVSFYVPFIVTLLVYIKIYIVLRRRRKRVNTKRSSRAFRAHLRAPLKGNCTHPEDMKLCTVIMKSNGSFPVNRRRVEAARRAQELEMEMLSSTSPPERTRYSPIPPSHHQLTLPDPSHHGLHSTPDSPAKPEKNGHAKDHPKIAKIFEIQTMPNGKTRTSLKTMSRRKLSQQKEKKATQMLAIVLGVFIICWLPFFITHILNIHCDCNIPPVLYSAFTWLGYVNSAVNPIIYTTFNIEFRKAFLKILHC
Experiment: Binding affinity towards dopamine D2 receptor
pIC50: −log10 of the molar value.
Each entry below carries its reported pIC50.

>  <MOLECULE>
Fc1ccc([Si]2(c3ccc(F)cc3)CCC(N3CCN(c4ccccc4)CC3)C2)cc1 (single isomer, unassigned; (+))

>  <TESTED_TARGET>
D(2) dopamine receptor (Homo sapiens, UniProt P14416)

>  <pIC50>
7.00

$$$$
>  <MOLECULE>
Fc1ccc([Si]2(c3ccc(F)cc3)CCC(N3CCN(c4ccccc4)CC3)C2)cc1 (racemic)

>  <TESTED_TARGET>
D(2) dopamine receptor (Homo sapiens, UniProt P14416)

>  <pIC50>
6.85

$$$$

---

What follows is a collection of IC50 values obtained with Muscarinic acetylcholine receptor M4 (Homo sapiens, UniProt P08173).
Sequence (P08173 whole entry): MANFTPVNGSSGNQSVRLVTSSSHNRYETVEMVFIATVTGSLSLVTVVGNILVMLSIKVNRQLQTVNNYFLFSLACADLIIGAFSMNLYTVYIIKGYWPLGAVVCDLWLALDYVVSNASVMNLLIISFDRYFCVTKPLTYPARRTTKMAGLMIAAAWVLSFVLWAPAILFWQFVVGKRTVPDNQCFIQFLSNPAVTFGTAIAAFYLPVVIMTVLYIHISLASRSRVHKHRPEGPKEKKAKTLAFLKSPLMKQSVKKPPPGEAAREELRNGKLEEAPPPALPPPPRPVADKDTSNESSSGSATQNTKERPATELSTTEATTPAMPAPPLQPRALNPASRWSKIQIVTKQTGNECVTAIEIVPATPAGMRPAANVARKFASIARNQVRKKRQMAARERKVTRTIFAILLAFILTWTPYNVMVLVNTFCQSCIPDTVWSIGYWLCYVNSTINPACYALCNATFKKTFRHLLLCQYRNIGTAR

>  <COMPOUND>
Fc1ccc([Si]2(c3ccc(F)cc3)CCC(N3CCN(c4ccccc4)CC3)C2)cc1 (racemic)

>  <IC50>
> 1000 nM

$$$$
>  <COMPOUND>
Fc1ccc([Si]2(c3ccc(F)cc3)CCC(N3CCN(c4ccccc4)CC3)C2)cc1 (single isomer, unassigned; (+))

>  <IC50>
> 1000 nM

$$$$

---

Molecular target: 5-hydroxytryptamine receptor 2A (Rattus norvegicus, UniProt P14842)
Sequence (P14842 whole entry): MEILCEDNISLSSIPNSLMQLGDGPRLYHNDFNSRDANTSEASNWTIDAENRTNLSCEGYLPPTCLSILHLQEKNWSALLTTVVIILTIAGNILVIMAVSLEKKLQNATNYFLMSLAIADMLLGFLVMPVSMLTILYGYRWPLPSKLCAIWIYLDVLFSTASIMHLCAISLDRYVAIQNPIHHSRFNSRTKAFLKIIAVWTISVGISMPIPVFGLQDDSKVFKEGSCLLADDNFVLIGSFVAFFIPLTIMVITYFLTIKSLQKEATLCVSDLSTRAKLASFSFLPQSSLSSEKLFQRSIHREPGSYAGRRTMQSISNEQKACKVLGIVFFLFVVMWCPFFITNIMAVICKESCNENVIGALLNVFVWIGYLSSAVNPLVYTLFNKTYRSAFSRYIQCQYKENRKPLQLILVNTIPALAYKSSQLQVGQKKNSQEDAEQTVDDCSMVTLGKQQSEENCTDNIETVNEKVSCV
Experiment: In vitro binding affinity towards serotonin 5-HT2A receptor in rat cortical membranes using [3H]ketanserin as radioligand
Format: cell membranes
QUANTITY_MEASURED: IC50 (µM)

>  <MOLECULE>
Fc1cccc(N2CCN(C3CC[Si](c4ccccc4)(c4ccccc4)C3)CC2)c1 (stereo not given)

>  <RECORDED_VALUE>
0.0034

$$$$
>  <MOLECULE>
Oc1ccc(N2CCN(C3CC[Si](c4ccccc4)(c4ccccc4)C3)CC2)cc1 (stereo not given)

>  <RECORDED_VALUE>
0.046

$$$$
>  <MOLECULE>
Cc1cccc(N2CCN(C3CC[Si](c4ccccc4)(c4ccccc4)C3)CC2)c1 (stereo not given)

>  <RECORDED_VALUE>
0.033

$$$$
>  <MOLECULE>
Fc1ccc(C2=CCN(C3CC[Si](c4ccccc4)(c4ccccc4)C3)CC2)cc1 (stereo not given)

>  <RECORDED_VALUE>
0.014

$$$$
>  <MOLECULE>
Cc1ccc(N2CCN(C3CC[Si](c4ccccc4)(c4ccccc4)C3)CC2)cc1 (stereo not given)

>  <RECORDED_VALUE>
0.01

$$$$
>  <MOLECULE>
Fc1ccc([Si]2(c3ccc(F)cc3)CCC(N3CCN(c4ccccc4)CC3)C2)cc1 (racemic)

>  <RECORDED_VALUE>
0.002

$$$$
>  <MOLECULE>
Fc1ccc([Si]2(c3ccc(F)cc3)CCC(N3CCN(c4ccccc4)CC3)C2)cc1 (stereo in doubt)

>  <RECORDED_VALUE>
0.016

$$$$
>  <MOLECULE>
c1ccc([Si]2(c3ccccc3)CCC(N3CCN(c4ncccn4)CC3)C2)cc1 (stereo not given)

>  <RECORDED_VALUE>
0.08

$$$$
>  <MOLECULE>
Fc1ccc([Si]2(c3ccc(F)cc3)CCC(N3CCN(c4ccccc4)CC3)C2)cc1 (single isomer, unassigned; (+))

>  <RECORDED_VALUE>
0.003

$$$$
>  <MOLECULE>
Fc1ccc([Si]2(c3ccc(F)cc3)CCC(N3CCN(c4ccccc4)CC3)C2)cc1 (single isomer, unassigned; (-))

>  <RECORDED_VALUE>
0.025

$$$$
